tested.system: human B-Raf (Homo sapiens, UniProt P15056)
Construct: Flag; GST; made in house; host or cells: Sf9 insect cells (B-Raf); E. coli (MEK1-GST)
Sequence (P15056 whole entry): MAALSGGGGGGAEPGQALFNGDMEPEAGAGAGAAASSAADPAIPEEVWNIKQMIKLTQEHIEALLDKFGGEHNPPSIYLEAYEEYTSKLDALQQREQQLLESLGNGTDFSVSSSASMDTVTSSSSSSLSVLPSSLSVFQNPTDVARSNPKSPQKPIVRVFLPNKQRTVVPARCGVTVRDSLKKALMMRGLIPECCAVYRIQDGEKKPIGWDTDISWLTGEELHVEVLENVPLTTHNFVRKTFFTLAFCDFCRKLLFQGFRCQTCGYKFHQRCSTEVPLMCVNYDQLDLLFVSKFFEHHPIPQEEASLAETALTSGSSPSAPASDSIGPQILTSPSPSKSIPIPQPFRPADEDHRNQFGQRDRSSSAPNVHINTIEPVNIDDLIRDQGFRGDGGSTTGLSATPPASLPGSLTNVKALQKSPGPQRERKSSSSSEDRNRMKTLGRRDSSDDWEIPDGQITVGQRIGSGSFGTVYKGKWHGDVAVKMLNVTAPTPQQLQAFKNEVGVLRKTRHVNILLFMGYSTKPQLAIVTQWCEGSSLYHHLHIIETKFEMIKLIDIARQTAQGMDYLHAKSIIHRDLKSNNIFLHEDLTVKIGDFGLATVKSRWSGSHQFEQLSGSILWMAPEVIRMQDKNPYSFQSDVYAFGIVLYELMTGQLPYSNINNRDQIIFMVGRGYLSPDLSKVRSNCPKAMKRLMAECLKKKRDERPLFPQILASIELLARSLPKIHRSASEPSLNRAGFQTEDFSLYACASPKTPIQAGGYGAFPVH
procedure.details: B-Raf Kinase to MEK1 ELISA
Type: biochemical
condition.set: read-out: % Inhib./10 uM

compound | tested.system | readout.unit | inhibition at 10 µM
CCOC(=O)c1cnn2c(-c3cccc(NC(=O)Nc4ccc5c(c4)OCO5)c3)ccnc12 [Example 245] | human B-Raf (Homo sapiens, UniProt P15056) | % | 18
CCOC(=O)c1cnn2c(-c3cccc(NC(=O)c4ccc(-c5cc(C(F)(F)F)nn5C)s4)c3)ccnc12 [Example 224] | human B-Raf (Homo sapiens, UniProt P15056) | % | 39
O=C(Nc1cccc(-c2ccnc3c(Br)cnn23)c1)c1ccc(Cl)c(Cl)c1 [Example 165] | human B-Raf (Homo sapiens, UniProt P15056) | % | 64
CCOC(=O)c1cnn2c(-c3cccc(NC(=O)c4ccc(C)s4)c3)ccnc12 [Example 221] | human B-Raf (Homo sapiens, UniProt P15056) | % | 65
